Target: HLA-A*26:01
Experiment: IEDB peptide-MHC binding, purified MHC/competitive/fluorescence; filed as Kd, often an IC50 or EC50 that approximates it; bounds were set here for any values at or beyond the usual limits of such assays
Conditions: source organism: Giardia intestinalis ATCC 50581
measure.name: Kd

For record `GLYLYRFHV` the listed Kd is ≥ 20 µM

====

Biological target: HLA-A*02:01
Experiment: IEDB peptide-MHC binding, purified MHC/competitive/fluorescence; filed as Kd, often an IC50 or EC50 that approximates it; bounds were set here for any values at or beyond the usual limits of such assays
Conditions: source organism: Burkholderia pseudomallei K96243
pKd: −log10 of the molar value.
measure.name: pKd

For record `SELTVSPPD` the listed pKd is ≤ 4.70

====

Target: HLA-A*69:01
Experiment: IEDB peptide-MHC binding, purified MHC/direct/fluorescence; filed as Kd, often an IC50 or EC50 that approximates it; bounds were set here for any values at or beyond the usual limits of such assays
Settings: source organism: Burkholderia mallei
measure.name: Kd

For record `DAAAPLPPV` the listed Kd is 0.8 nM

====

Target: HLA-B*40:01
Experiment: IEDB peptide-MHC binding, purified MHC/direct/fluorescence; filed as Kd, often an IC50 or EC50 that approximates it; bounds were set here for any values at or beyond the usual limits of such assays
Conditions: source organism: Vibrio vulnificus
measure.name: Kd

For record `GLKELGDWV` the listed Kd is ≥ 20 µM

====

Biological target: HLA-B*57:01
Assay: IEDB peptide-MHC binding, purified MHC/direct/fluorescence; filed as Kd, often an IC50 or EC50 that approximates it; bounds were set here for any values at or beyond the usual limits of such assays
Conditions: source organism: Toxoplasma gondii RH
pKd: −log10 of the molar value.
measure.name: pKd

For record `LTMNLVSDI` the listed pKd is ≤ 4.70

====

Target: HLA-A*02:01
Assay: IEDB peptide-MHC binding, purified MHC/competitive/radioactivity; filed as Kd, often an IC50 or EC50 that approximates it; bounds were set here for any values at or beyond the usual limits of such assays
Details: source organism: Dengue virus 3 Sri Lanka/1266/2000
measure.name: pKd
One number for each entry, as −log10 of the molar value.

For record `ALFSGVSWVM` the listed pKd is 8.14

====

Molecular target: HLA-A*32:01
Assay: IEDB peptide-MHC binding, purified MHC/competitive/radioactivity; filed as Kd, often an IC50 or EC50 that approximates it; bounds were set here for any values at or beyond the usual limits of such assays
Settings: source organism: Dengue virus 2 Jamaica/1409/1983
measure.name: pKd
One number for each entry, as −log10 of the molar value.

Answered examples (2):
GNPGRFWNTT; 5.00
GQLKLNWFKK; 5.68

Next up:
For record `TLYAVATTF` the listed pKd is 7.09

====

Target: HLA-A*30:02
Assay: IEDB peptide-MHC binding, purified MHC/competitive/radioactivity; filed as Kd, often an IC50 or EC50 that approximates it; bounds were set here for any values at or beyond the usual limits of such assays
Details: source organism: Dengue virus 3 Martinique/1243/1999
measure.name: pKd
Answers are plain numbers, as −log10 of the molar value.

For record `YAQMWSLMY` the listed pKd is 8.06

====

Target: HLA-B*15:17
Experiment: IEDB peptide-MHC binding, purified MHC/competitive/fluorescence; filed as Kd, often an IC50 or EC50 that approximates it; bounds were set here for any values at or beyond the usual limits of such assays
Details: source organism: Escherichia coli 536
measure.name: Kd

For record `RAMDVYCHR` the listed Kd is ≥ 20 µM
